Catalogue of compounds with associated relative viability
- Test system: IA-LM
- Experimental Protocol: relative viability (nuclei count vs DMSO), 5 days (fraction); higher = more cells survive
- Measurement Setup: first compound 0.5 µM
Could you keep your reply to the number by itself?

Compound: COc1cc2nccc(Oc3ccc(NC(=O)Nc4cc(C)on4)c(Cl)c3)c2cc1OC [Tivozanib] + O=C(c1cc(Cc2n[nH]c(=O)c3ccccc23)ccc1F)N1CCN(C(=O)C2CC2)CC1 [Olaparib] (partner 8 µM)
relative viability: 0.672

Compound: COc1cc2nccc(Oc3ccc(NC(=O)Nc4cc(C)on4)c(Cl)c3)c2cc1OC [Tivozanib] + CS(=O)(=O)N1CCN(Cc2cc3nc(-c4cccc5[nH]ncc45)nc(N4CCOCC4)c3s2)CC1 [Pictilisib] (partner 1 µM)
relative viability: 0.574

Compound: Nc1ccn([C@@H]2O[C@H](CO)[C@@H](O)[C@@H]2O)c(=O)n1 [Cytarabine] + CC1(C)CCC(c2ccc(Cl)cc2)=C(CN2CCN(c3ccc(C(=O)NS(=O)(=O)c4ccc(N[C@H](CCN5CCOCC5)CSc5ccccc5)c(S(=O)(=O)C(F)(F)F)c4)cc3)CC2)C1 [Navitoclax] (partner 0.5 µM)
relative viability: 0.151

From here, focus on the item given below.
Data request: # get_value(readout='relative viability', item= COc1cc2nccc(Oc3ccc(NC(=O)Nc4cc(C)on4)c(Cl)c3)c2cc1OC [Tivozanib] + Cc1nc(NC(=O)N2CCC[C@H]2C(N)=O)sc1-c1ccnc(C(C)(C)C(F)(F)F)c1 [Alpelisib] (partner 2 µM) )
Data returned: 0.531
